- target_or_test_system: p45 v-abl tyrosine kinase
- assay_remarks: p45 v-abl kinase assay
- settings: (Val^5)-angiotensin II phosphorylation; peptide 2 mM, ATP 50 μM; pH 8.0; 30° C.; triplicate; read-out: Inhibition of p45 v-abl kinase, IC50
property: pIC50
pIC50 is a log-scale quantity: -log10 of the concentration expressed in molar.

Exercise: Supply reported pIC50 belonging to this molecule: CCOC(=O)C(C)Oc1ccc(C=C2C(=O)Nc3ccccc32)c2cccnc12 (stereo not shown)
Solution: 4.82
